Experiment: NCI Yeast Anticancer Drug Screen. Data for the sgs1 mgt1 strain (AID 161);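 further: 0% = growth of cultures given vehicle only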
Settings: S. cerevisiae sgs1 mgt1 strain, active compounds read high; at 50.0 µM unless noted
About 79,000 compounds went through this panel and 15% of them were active in at least one assay; those are over-represented in the sample as a whole.
endpointName: growth inhibition (%)
Expressed in %, but write only the number.

Use the examples below as a reference point.
COC(=O)c1c(C)ccc(C)c1Nc1cc(C)ccc1C	-1.2
[N-]=[N+]=Nc1cccc(-c2n[nH]c(Cl)cc2=O)c1	-38.6
OCC(O)C1OC(O)C(O)C(O)C1O (stereo not given)	-32.2
O=c1cnn2c(n1)OC1C(O)C(CO)OC12 (stereo not given)	9.6
CCOC(=O)c1ccc(N(CCO)CCO)cc1	5.45

q: Field request: growth inhibition | item: COC(=O)C(Br)C(CCCN1C(=O)c2ccccc2C1=O)OC (stereo not given)
a: 45.9

q: Field request: growth inhibition | item: CC(=O)OCCN(CCOC(C)=O)CCOC(C)=O
a: -3.4

q: Field request: growth inhibition | item: c1ccc2[nH]c(CSc3nc4ccccc4s3)nc2c1
a: 37.5

q: Field request: growth inhibition | item: O=C(CC1(O)C(=O)Nc2ccc(Br)cc21)c1ccc2c(c1)OCO2 (stereo not given)
a: 11.4

q: Field request: growth inhibition | item: C=C1C(=O)OC2CC(C)C(/C=C/C(C)=O)=CCC12 (stereo not given)
a: -19.9

q: Field request: growth inhibition | item: CCc1ccc(NN=Nc2ccccc2C#N)cc1
a: 16.2

q: Field request: growth inhibition | item: Cc1cc(C)c2nccc(NCCCN(C)C)c2c1[N+](=O)[O-]
a: -1.8

q: Field request: growth inhibition | item: COC(=O)C(CCCCCCCC(C(=O)OC)c1nc2n(c1O)C(=N)N=N2)c1nc2n(c1O)C(=N)N=N2 (stereo not given)
a: -7.95

q: Field request: growth inhibition | item: O=CNc1nc[nH]c1-c1noc(=O)[nH]1
a: -3.5

* * *

Assay: NCI Yeast Anticancer Drug Screen. Data for the cln2 rad14 strain (AID 165);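 further: 0% = growth equal to vehicle treated cultures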
Settings: S. cerevisiae cln2 rad14 strain, active compounds read high; at 50.0 µM unless noted
About 79,000 compounds went through this panel and 15% of them were active in at least one assay; those are over-represented in the sample as a whole.
endpointName: growth inhibition (%)
Expressed in %, but write only the number.

Use the examples below as a reference point.
CCOC(=O)c1cc2c(-c3ccccc3)c(-c3ccccc3)c(-c3ccccc3)c(-c3ccccc3)n2n1	31.9
O=C1c2cccc3cc([N+](=O)[O-])cc(c23)C(=O)N1C(CO)(CO)CO	27.5
Nc1cc(Nc2ccccc2)nc(=O)[nH]1	-75.2
c1ccc2nn(C3CCCO3)nc2c1 (configuration not stated)	-29.4
ON=C(c1ccccn1)c1ccccn1	4.35
C/C(=C(/C)c1ccc(O)cc1)c1ccc(O)cc1	9.05
CCCCCCCCCCCCCCCCCC(=O)N/N=C\c1c(O)ccc2ccccc12	2.15
CCOC(=O)C12CCCC1(O)N(NC(N)=O)C(C)=C2C(=O)OC (configuration not stated)	-69.1
O=c1c(-c2ccccc2)c[nH]c2ccccc12	8.45
NC1(CC(=O)O)CCN(Cc2ccccc2)CC1	-7.05

q: Field request: growth inhibition | item: CO/C(=N\N=C\c1ccc(C(F)(F)F)cc1)c1ccncc1
a: 22.4

q: Field request: growth inhibition | item: CC(=O)c1ccccc1OB(F)F
a: -4.45
